Test system: NIH3T3
assay_summary: qHTS assay to identify novel small-molecules to repurpose for Merkel cell carcinoma treatment (AID 1296009); also: nearly all actives have a fitted effect of over 60% in size
test_parameters: MCC and control cell lines, CellTiter-Glo viability, 72 h; at 44.8 µM (top of the series) unless noted
Records with an inconclusive call do not appear. Activity calls are given as the source filed them. Calls follow the shape of the dose curve; as a rule, active = well fitted inhibition curve with a large enough effect; inconclusive = small, poorly fitted or top-dose-only effect; inactive = flat fitted curve, though single readings scatter.
observation_type: outcome

>>> print(df.to_string())
                                   molecule         endpoint_value
0  COc1cc(/C=C/C(=O)O)ccc1O[C@@H]1O[C@H](CO)[C@@H](O)[C@H](O)[C@H]1O[C@@H]1OC[C@](O)(CO)[C@H]1O  inactive [at 17.4 µM]
1  C=C1C[C@H](O)[C@@H](O)[C@@]2(C)C1[C@@H](O)[C@H]1OC(=O)C3[C@@H](C)[C@@H](O)[C@H](O)C2[C@]31C (stereo partly drawn)               inactive
2  COc1cc(Nc2nc3ccccc3nc2NS(=O)(=O)c2cccc(NC(=O)c3ccc(C)c(OC)c3)c2)cc(OC)c1               inactive
3  C/C=C(\C)C(=O)OC1C(C)C2(O)C3C=C(C)C(=O)C3CC(CO)=CC2C2C(C)(C)C12OC(C)=O (stereo not drawn)  inactive [at 17.4 µM]
4  Cc1onc(-c2ccccc2Cl)c1C(=O)N(C)c1ccc(Cl)cc1               inactive
5  C=CC(C)(C)C12Nc3c(ccc4c3OC(C)(C)C=C4)C1(O)CC1C(=O)N3CCCC3C(=O)N12 (stereo not drawn)  inactive [at 17.4 µM]
6  CCCc1[nH]nc2c1C(c1cc(Cl)cc(Cl)c1O)C(C#N)=C(N)O2 (stereo not drawn)               inactive
7  CC(C)C(NC(=O)c1ccc(O)cc1)C(=O)N1CCCC1C(=O)Nc1c(O)cccc1C(=O)O (stereo not drawn)  inactive [at 17.4 µM]
